Recorded values, source patent US20250326807A1.

# target_under_test: T1, Recombinantly expressed fused calprotectin (His6-linker-S100A9-linker-S100A8), product code B-RCAL, BÜHLMANN … (human, UniProt P06702 1-114; P05109 1-93)
# T1 chain: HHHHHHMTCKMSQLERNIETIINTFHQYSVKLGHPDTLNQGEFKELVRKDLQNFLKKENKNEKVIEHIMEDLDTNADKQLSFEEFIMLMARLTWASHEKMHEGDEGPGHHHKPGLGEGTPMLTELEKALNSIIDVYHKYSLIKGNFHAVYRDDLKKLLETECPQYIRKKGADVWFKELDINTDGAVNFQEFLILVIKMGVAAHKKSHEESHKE
# test_method_notes: fluorescence polarization
Overview of recorded pKd for various binders
In plain terms, pKd is the concentration in mol/L turned into minus its base-10 logarithm.

binder: VCPCPLFRAHGCSRFSCQ (not fully specified; cross-linked between cysteines (linker not named); N-terminal 5(6)-carboxyfluorescein; synthesised on rink amide AM resin)
measurement_type: pKd
observed_value: 7.66

Alright, here's another binder for you.
stdin: Entry under review: CTQSPCPLYDSHQCSCK (not fully specified; cross-linked between cysteines (linker not named); N-terminal 5(6)-carboxyfluorescein; synthesised on rink amide AM resin) . Reported pKd?
stdout: 7.42
